Some sequences, each annotated with its measured PBM E-score.
Target: Nrg2 (UniProt P38082)
Sequence: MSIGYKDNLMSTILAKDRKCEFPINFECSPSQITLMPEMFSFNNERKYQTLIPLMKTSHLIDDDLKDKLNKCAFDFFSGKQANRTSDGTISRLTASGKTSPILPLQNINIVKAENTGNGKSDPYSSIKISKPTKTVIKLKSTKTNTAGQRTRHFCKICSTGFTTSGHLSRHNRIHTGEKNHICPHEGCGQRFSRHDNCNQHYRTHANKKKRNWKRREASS
Assay: PBM E-score (8-mer binding enrichment) (E-score (-0.5 to 0.5)); higher = stronger / more preferred TF binding
Conditions: protein concentration: 100 nM; construct: GST-full length
In all, about 33,000 sequences were measured (“E-score (-0.5 to 0.5)”: median about -8e-05, highest 2% from about 0.23 on). The full list was thinned out, with the highest values kept by preference.
// return a plain number; no unit text

Answered examples (2):
ATCCTCAG = 0.1
CGTTAAAC = 0.0981

Request: Recorded PBM E-score of CTCGGCAC , please.
Result: 0.0273

Request: Recorded PBM E-score of ACCTGACC , please.
Result: -0.197

Request: Recorded PBM E-score of AGGAGCAC , please.
Result: 0.0739

Request: Recorded PBM E-score of CATGGCCG , please.
Result: 0.258

Request: Recorded PBM E-score of GTCGCGAC , please.
Result: 0.37

Request: Recorded PBM E-score of AGCGCGTC , please.
Result: -0.0322

Cited source: the supplement of paper PMC3334620
